- system_tested: cloned recombinant human HDAC-1 (Homo sapiens, UniProt Q13547)
- Construct: made in house; host or cells: Baculovirus insect cell expression system
- Sequence (Q13547 whole entry): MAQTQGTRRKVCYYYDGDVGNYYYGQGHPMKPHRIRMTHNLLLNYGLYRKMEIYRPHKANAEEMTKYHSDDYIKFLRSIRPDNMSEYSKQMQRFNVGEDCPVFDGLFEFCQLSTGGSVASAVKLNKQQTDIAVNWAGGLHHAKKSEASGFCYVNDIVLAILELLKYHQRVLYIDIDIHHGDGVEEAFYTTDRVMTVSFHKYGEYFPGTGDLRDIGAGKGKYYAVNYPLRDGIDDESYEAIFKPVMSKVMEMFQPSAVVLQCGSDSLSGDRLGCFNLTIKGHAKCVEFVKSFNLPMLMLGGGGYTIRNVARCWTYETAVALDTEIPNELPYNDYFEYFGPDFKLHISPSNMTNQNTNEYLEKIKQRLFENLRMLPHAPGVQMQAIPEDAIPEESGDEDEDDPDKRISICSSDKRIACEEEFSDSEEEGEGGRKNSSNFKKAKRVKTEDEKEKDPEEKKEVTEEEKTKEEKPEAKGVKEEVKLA
- test_name: Human HDAC-1 enzyme inhibition, Assay 1 ([3H]-acetylated histone substrate, scintillation counting)
- Format: biochemical
- condition_details: Table 5d; read-out: HDAC-1 IC50
Field: label. Allowed values: True (IC50 < 10 µM) or False (IC50 >= 10 µM).

Worked set:
COc1cc(/C=C/C(=O)Nc2ccccc2N)cc(OC)c1CNc1cc(OC)c(OC)c(OC)c1    False
Nc1ccccc1NC(=O)/C=C/c1ccc(CNc2ccc([N+](=O)[O-])cc2)cc1    True
Nc1ccccc1NC(=O)/C=C/c1ccc(NCc2cccc(OCC(F)(F)F)c2)nc1    True
COc1cc(N(CCN2CCOCC2)Cc2ccc(/C=C/C(=O)Nc3ccccc3N)cc2)cc(OC)c1OC    True
Nc1ccccc1NC(=O)/C=C/c1ccc(CNc2ccc(Cl)cc2)cc1    True
COc1ccc(NCc2ccc(/C=C/C(=O)Nc3ccccc3N)cc2)cc1CNc1cc(OC)c(OC)c(OC)c1    False

Exam item: Confirm or reject: IC50 of COc1cc(/C=C\c2ccc(/C=C/C(=O)Nc3ccccc3N)cc2)cc(OC)c1OC lies strictly below 10 µM
Marked response: False

Exam item: Moving on to the next compound: Nc1ccccc1NC(=O)/C=C/c1ccc(CNc2ccc(OC(F)(F)F)cc2)cc1
Marked response: True
